The values you see were collected from patent US9682978B2.

# measurementTarget: HDM2 (Homo sapiens, UniProt Q00987)
# Construct: Thioredoxin (N); made in house; host or cells: E. coli BL21(DE3)Rosetta (pET32a)
# Sequence (Q00987 17-125): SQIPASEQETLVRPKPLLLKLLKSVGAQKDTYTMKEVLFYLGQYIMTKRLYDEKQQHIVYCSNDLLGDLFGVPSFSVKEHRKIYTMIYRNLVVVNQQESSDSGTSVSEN
# procedureSummary: HDM2 FRET assay (inhibition of p53 peptide binding to HDM2)
# assaySetup: Table 3; truncated HDM2 residues 17 to 125, 0.5 nM HDM2, 3 nM FITC labeled 8-mer peptide, two hour incubation
pIC50: −log10 of the molar value.
Threshold check on pIC50: at or above 6 gives Condition met, strictly below gives Condition not met.

Reference set, count: 3
[[record]]
compound = "CCC1CCC(Cn2cnc3nc(C(=O)O)nc(N[C@H](C)C4CCC4)c32)C1 (single isomer, unassigned) [Example 3.13]"
measurementtarget = "HDM2 (Homo sapiens, UniProt Q00987)"
label = "Condition met"

[[record]]
compound = "C[C@@H]1CC[C@@H](Cn2cnc3nc(-c4noc(=O)[nH]4)nc(N[C@H](C)C4CCC4)c32)CC1(F)F (stereo in doubt)"
measurementtarget = "HDM2 (Homo sapiens, UniProt Q00987)"
label = "Condition met"

[[record]]
compound = "C[C@@H](Nc1nc(C(=O)O)nc2ncn(CC3CCC4(CC3)CC4)c12)C1CCC1"
measurementtarget = "HDM2 (Homo sapiens, UniProt Q00987)"
label = "Condition not met"


Then this compound:
Input: Answer whether pIC50 of CCC1CCC(Cn2cnc3nc(-c4noc(=O)[nH]4)nc(N[C@H](C)C4CCC4)c32)C1 (single isomer, unassigned) [Example 3.14] is greater than or equal to 6.
Output: Condition met

###

# measurementTarget: HDM2 (Homo sapiens)
# Construct: Thioredoxin (N); made in house; host or cells: E. coli BL21(DE3)Rosetta (pET32a)
# procedureSummary: HDM2 FRET assay (inhibition of p53 peptide binding to HDM2)
# assaySetup: Table 1; truncated HDM2 residues 17 to 125, 0.5 nM HDM2, 3 nM FITC labeled 8-mer peptide, two hour incubation
measureName: pIC50
Just so you know, pIC50 here is -log10 of the concentration in molar units; reply with that number alone.

[[record]]
entrysmiles = "C[C@@H](Nc1nc(-c2n[nH]c(=O)n2C)nc2ncn(C[C@H]3CC[C@H](C)CC3)c12)C1CCC1"
recordedmeasurement = 6.62

[[record]]
entrysmiles = "C[C@@H](Nc1nc(-c2noc(=O)[nH]2)nc2ncn(C[C@H]3CC[C@H](C)CC3)c12)C1CCC1"
recordedmeasurement = 7.29

[[record]]
entrysmiles = "C[C@@H](Nc1nc(C(=O)O)nc2ncn(Cc3ccc(C(F)(F)F)cc3)c12)C1CC1"
recordedmeasurement = 5.94

[[record]]
entrysmiles = "C[C@@H](Nc1nc(C(=O)O)nc2ncn(Cc3cc4ccccc4s3)c12)C1CC1"
recordedmeasurement = 5.62

[[record]]
entrysmiles = "C[C@@H](Nc1nc(C(=O)O)nc2ncn(Cc3ccc(C(F)(F)F)cc3)c12)C1CCC1"
recordedmeasurement = 7.09


response.value for `C[C@@H](Nc1nc(C(=O)O)nc2ncn(C[C@H]3CC[C@H](C)CC3)c12)C1CCC1` (field: pIC50) = 7.16

response.value for `C[C@@H](Nc1nc(C(=O)NS(=O)(=O)N(C)C)nc2ncn(C[C@H]3CC[C@H](C)CC3)c12)C1CCC1` (field: pIC50) = 6.13

response.value for `C[C@@H](Nc1nc(-c2nc(=O)n(C)[nH]2)nc2ncn(C[C@H]3CC[C@H](C)CC3)c12)C1CCC1` (field: pIC50) = 7.15
